test: qHTS of pediatric cancer cell lines to identify multiple opportunities for drug repurposing: Primary screen for A673 cells (AID 1347092); settings: A673 Ewing sarcoma viability, CellTiter-Glo ATP luminescence, 48 h; series mostly up to 46 µM; further: nearly all actives have a fitted effect of over 45% in size
Results filed as inconclusive are left out. Activity calls are given as the source filed them. The call rests on the fitted dose curve; in most records, active means well fitted cell-killing curve with a large enough effect; inconclusive means small, poorly fitted or top-dose-only effect; inactive means no such curve, though single readings can be large or run the other way.
// allowed return values: active, inactive

Consider the following illustrative entries.
COc1ccc2cc([S+]([O-])Cc3ncc(C)c(OC)c3C)nc2c1	inactive
N#Cc1ccc(COC[C@H]2O[C@@H](n3c(NCc4ccc(Cl)c(Cl)c4)nc4c(N)ncnc43)[C@@H](O)[C@@H]2O)cc1	active
CCCNS(=O)(=O)Nc1ncnc(OCCOc2ncc(Br)cn2)c1-c1ccc(Br)cc1	inactive
C[C@@H](Cc1cc2c(c(C(N)=O)c1)N(CCCO)CC2)NCCOc1ccccc1OCC(F)(F)F	inactive
OC[C@@H](O)[C@@H](O)[C@H](O)[C@@H](O)CO	inactive
Cc1cc(-c2nnc3n2CCCCC3)c(C)n1-c1ccccc1	inactive
N#Cc1cc(NC(=O)Nc2nnc(-c3ccncc3)s2)ccc1-c1cn[nH]c1	inactive
C[C@H](CCC(=O)O)[C@H]1CC[C@H]2[C@@H]3[C@H](O)C[C@@H]4C[C@H](O)CC[C@]4(C)[C@@H]3CC[C@]12C	inactive

QUERY: Hi, do you know how COc1cc2c(Nc3ccc(Cl)c(Cl)c3F)ncnc2cc1OCC1C[C@@H]2CN(C)C[C@H]2C1 came out in this test?
RESULT: active

QUERY: Hi, do you know how CC(C)(N)c1ccc(-c2nc3ccccc3nc2-c2ccccc2)cc1 came out in this test?
RESULT: active
